# credit: the supplement of paper PMC9694430

tested on: LOC_OS01G67340-cb003; test: thermal shift delta Tm vs DMSO control; higher = stronger stabilization (binding); settings: 12.5 µM; protein concentration 2 µM;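 further: purified Escherichia coli-expressed rice kinase domain construct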
Structures can show the parent of a compound that is named as a salt.
Classify by measured thermal shift delta Tm: 1 if it is equal to or exceeds 0.5 °C, 0 if it is smaller.

- COMPOUND: "N[C@@H]1CCCN(c2c(/C=C3\\SC(=O)NC3=O)cccc2-c2ccccc2)C1"
  ASSIGNED LABEL: 0
- COMPOUND: "COc1cc2c(Oc3ccc4[nH]c(C)cc4c3F)ncnc2cc1OCCCN1CCCC1"
  ASSIGNED LABEL: 0
- COMPOUND: "Nc1nc(Nc2ccc(S(N)(=O)=O)cc2)nn1C(=O)c1c(F)cccc1F"
  ASSIGNED LABEL: 1
- COMPOUND: "CNC(=O)c1ccc(Nc2ncc(C(F)(F)F)c(NCc3nccnc3N(C)S(C)(=O)=O)n2)cc1"
  ASSIGNED LABEL: 1
- COMPOUND: "CCCCCCCCc1ccc(CCC(N)(CO)CO)cc1 [Fingolimod (FTY720) HCl]"
  ASSIGNED LABEL: 0
- COMPOUND: "C[C@H](NC(=O)c1c(N)nn2cccnc12)c1cc2cccc(C#Cc3cnn(C)c3)c2c(=O)n1-c1ccccc1"
  ASSIGNED LABEL: 0
- COMPOUND: "Cc1cc(Nc2cc(N3CCN(C)CC3)nc(/C=C/c3ccccc3)n2)n[nH]1 [ENMD-2076 L-(+)-Tartaric acid]"
  ASSIGNED LABEL: 1
